Assay method text: Lipophilicity by shake-flask method (n-octanol/saline or PBS)
Format: physicochemical
Reported conditions: n-octanol/PBS, room temperature
Mark Criterion met for LogD7.4 under -2, Criterion not met if at or over.

# count of solved cases: 4
• N#C[C@@H]1CC(F)(F)CN1C(=O)CNC(=O)c1ccnc2c(NC(=O)CCC(=O)NCCNC(=O)CCC(C(=O)[O-])N3CCN(CC(=O)[O-])CCN(CC(=O)[O-])CC3)cccc12.[68Ga+3] (stereo partly drawn) [[^68Ga]Ga-NODAGA-OncoFAP] = Criterion met
• N#C[C@@H]1CC(F)(F)CN1C(=O)CNC(=O)c1ccnc2c(NC(=O)CCC(=O)N3CCN(C(=O)CN4CCN(CC(=O)[O-])CCN(CC(=O)[O-])CC4)CC3)cccc12.[68Ga+3] [[^68Ga]Ga-NOTA-OncoFAP] = Criterion met
• N#C[C@@H]1CC(F)(F)CN1C(=O)CNC(=O)c1ccnc2c(NC(=O)CCC(=O)NCCNC(=O)CCC(C(=O)O)N3CCN(CC(=O)[O-])CCN(CC(=O)[O-])CCN(CC(=O)[O-])CC3)cccc12.[177Lu+3] (stereo partly drawn) [[^177Lu]Lu-DOTAGA-OncoFAP] = Criterion not met
• N#C[C@@H]1CC(F)(F)CN1C(=O)CNC(=O)c1ccnc2c(NC(=O)CCC(=O)NCCNC(=O)CCC(C(=O)O)N3CCN(CC(=O)[O-])CCN(CC(=O)[O-])CC3)cccc12.[18F][Al+2] (stereo partly drawn) [[^18F]AlF-NODAGA-OncoFAP] = Criterion met

Ask: Report whether reported LogD7.4 is lower than -2 (strictly) for N#C[C@@H]1CC(F)(F)CN1C(=O)CNC(=O)c1ccnc2c(NC(=O)CCC(=O)NCCNC(=O)CCC(C(=O)O)N3CCN(CC(=O)[O-])CCN(CC(=O)[O-])CCN(CC(=O)[O-])CC3)cccc12.[68Ga+3] (stereo partly drawn) [[^68Ga]Ga-DOTAGA-OncoFAP]
Result: Criterion met

* * *

In this section, each of the molecules is paired with its reported LogP.
Assay method text: Lipophilicity by shake-flask method (n-octanol/saline or PBS)
Type: physicochemical
Reported conditions: n-octanol/saline solution, room temperature

* N#C[C@@H]1CC(F)(F)CN1C(=O)CNC(=O)c1ccnc2c(NC(=O)CCC(=O)N3CCN(C(=O)CN4CCN(CC(=O)[O-])CCN(CC(=O)[O-])CC4)CC3)cccc12.[68Ga+3] [[^68Ga]Ga-NOTA-OncoFAP] | -2.38± 0.11
* N#C[C@@H]1CC(F)(F)CN1C(=O)CNC(=O)c1ccnc2c(NC(=O)CCC(=O)NCCNC(=O)CCC(C(=O)O)N3CCN(CC(=O)[O-])CCN(CC(=O)[O-])CC3)cccc12.[18F][Al+2] (stereo partly drawn) [[^18F]AlF-NODAGA-OncoFAP] | -3.02± 015
* N#C[C@@H]1CC(F)(F)CN1C(=O)CNC(=O)c1ccnc2c(NC(=O)CCC(=O)NCCNC(=O)CCC(C(=O)O)N3CCN(CC(=O)[O-])CCN(CC(=O)[O-])CCN(CC(=O)[O-])CC3)cccc12.[68Ga+3] (stereo partly drawn) [[^68Ga]Ga-DOTAGA-OncoFAP] | -2.57± 0.15
* N#C[C@@H]1CC(F)(F)CN1C(=O)CNC(=O)c1ccnc2c(NC(=O)CCC(=O)N3CCN(C(=O)CN4CCN(CC(=O)[O-])CCN(CC(=O)[O-])CC4)CC3)cccc12.[18F][Al+2] [[^18F]AlF-NOTA-OncoFAP] | -2.15± 0.18
* N#C[C@@H]1CC(F)(F)CN1C(=O)CNC(=O)c1ccnc2c(NC(=O)CCC(=O)NCCNC(=O)CCC(C(=O)[O-])N3CCN(CC(=O)[O-])CCN(CC(=O)[O-])CC3)cccc12.[68Ga+3] (stereo partly drawn) [[^68Ga]Ga-NODAGA-OncoFAP] | -2.68± 0.14

Now for a further molecule.
Ask: Given N#C[C@@H]1CC(F)(F)CN1C(=O)CNC(=O)c1ccnc2c(NC(=O)CCC(=O)NCCNC(=O)CCC(C(=O)O)N3CCN(CC(=O)[O-])CCN(CC(=O)[O-])CCN(CC(=O)[O-])CC3)cccc12.[177Lu+3] (stereo partly drawn) [[^177Lu]Lu-DOTAGA-OncoFAP] , state its recorded LogP.
Result: -2.01± 0.08
